protocol: qHTS assay for cell viability of HEK293 cells (AID 743288); note: % is set by controls: 0 for no effect and ±100 for the full control effect; nearly all actives have a fitted effect of over 50% in size
condition_label: ATP luminescence (CellTiter-Glo), 18 h, active compounds read low
Records with an inconclusive call do not appear. Calls of active or inactive are those of the source. Calls come from the whole dose curve; as a rule, active = well fitted cell-killing curve with a large enough effect; inconclusive = small, poorly fitted or top-dose-only effect, or effect the other way; inactive = flat fitted curve, though single readings scatter.
quantity_name: max response

The cases that follow already have their max response on record.
compound	experimental_value
CCCCOCCOCCOCCCC	3.02% (inactive)
CC(O)CC(C)O (stereo not drawn)	7.82% (inactive)
CC/C=C1/OC(=O)c2ccccc21	-15.4% (inactive)
CC(CCl)OC(C)CCl (stereo not drawn)	-14.3% (inactive)
Nc1cccc2c(=O)[nH][nH]c(=O)c12	0.895% (inactive)

Lookup: Report max response for CC(=O)CC(C)C please.
Found: -6.25% (inactive)

Lookup: How about this compound: CCC(C)(C)OC
Found: -19.7% (inactive)

Lookup: Lookup CC(C)CCOC(=O)/C=C/c1ccccc1
Found: -10.1% (inactive)

Lookup: Same for O=C(O[C@@H](C(=O)O)[C@@H](OC(=O)c1ccccc1)C(=O)O)c1ccccc1
Found: 9.93% (inactive)

Lookup: Now consider O=[N+]([O-])c1ccc(NCCO)c(OCCO)c1 .
Found: -2.57% (inactive)

Lookup: Now the same for Cc1cccc2cccnc12
Found: -0.0071% (inactive)

Lookup: Field entry: C=CCCC
Found: -5.1% (inactive)

* * *

protocol: Cell Viability - LYMP2-005 (AID 967);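 note: cells exposed to compound for 24 h at 37 °C; plate controls were DMSO only for no effect and 92 µM tetraoctylammonium bromide control for full effect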
condition_label: LYMP2-005 lymphoblastoid cell viability; series mostly up to 92.2 µM
Inconclusive results are not listed. Active and inactive are the calls of the source. Calls come from the whole dose curve; as a rule, active = well fitted cell-killing curve with a large enough effect; inconclusive = small, poorly fitted or top-dose-only effect, or effect the other way; inactive = no such curve, though single readings can be large or run the other way.
quantity_name: outcome

# example entries with known answers
structure_smiles_string	experimental_value
CCc1ccccc1O	inactive
O=P(O)(OCc1ccccc1)OCc1ccccc1	inactive
Cc1ccc2nc(-c3ccc(N)cc3)sc2c1S(=O)(=O)O	inactive
O=C(Cl)c1cccc([N+](=O)[O-])c1	inactive

Then there is this compound:
Lookup: State the recorded outcome for this entry: O=c1[nH][nH]c(=O)c2cc([N+](=O)[O-])ccc12
Found: inactive

* * *

protocol: qHTS assay for cell viability of the p53RE-bla HCT-116 cell line (AID 743292); note: % is set by controls: 0 for no effect and ±100 for the full control effect; nearly all actives have a fitted effect of over 55% in size
condition_label: p53RE-bla HCT-116 viability, ATP luminescence, 16 h; series mostly up to 95 µM
Results filed as inconclusive are left out. Activity calls are given as the source filed them. Calls follow the shape of the dose curve; as a rule, active = well fitted cell-killing curve with a large enough effect; inconclusive = small, poorly fitted or top-dose-only effect, or effect the other way; inactive = flat fitted curve, though single readings scatter.
Please answer using one outcome listed in label 1 = active, label 0 = inactive

Some solved cases for reference:
compound	qualitative_label
Cc1cscn1	label 0
Cc1ccccc1C(N)=O	label 0
CC(C)Cc1nccs1	label 0
Cc1cccc(C)c1O	label 0

Okay, now this compound:
Lookup: Each compound tested received a call. Report the one for Cc1ccccc1C(=O)O .
Found: label 0

* * *

# key: entry, value: max response
protocol: qHTS assay for cell viability of HEK293 cells (AID 743288); note: % is set by controls: 0 for no effect and ±100 for the full control effect; nearly all actives have a fitted effect of over 50% in size
condition_label: ATP luminescence (CellTiter-Glo), 18 h, active compounds read low
Results filed as inconclusive are left out.
Express your answer in %, writing the number without its unit.

Lookup: Would you kindly share the measured max response for CSc1ccc(C=O)cc1 ?
Found: 8.71

Lookup: Now the same for CCNc1ccccc1
Found: -1.34

Lookup: Consider next the compound O=C(O)c1ccccc1C(=O)O in the same way.
Found: -4.91

Lookup: Would you kindly repeat that for CC(C)(O)CCC(C)(C)O ?
Found: 2.13

Lookup: Item: Cc1cc(C)cc([N+](=O)[O-])c1
Found: 1.12

Lookup: Thanks! And Nc1cc(S(=O)(=O)O)ccc1O ?
Found: -1.98

Lookup: What do you get for C1CCOC1 ?
Found: -1.37

Lookup: Also C/C=C(/C)C#N , if possible.
Found: 0.0053

Lookup: Another compound to check: Nc1cccc(O)c1
Found: 2.15

* * *

target_or_test_system: Estrogen receptor (Homo sapiens) (UniProt P03372)
Sequence (P03372 whole entry, looked up): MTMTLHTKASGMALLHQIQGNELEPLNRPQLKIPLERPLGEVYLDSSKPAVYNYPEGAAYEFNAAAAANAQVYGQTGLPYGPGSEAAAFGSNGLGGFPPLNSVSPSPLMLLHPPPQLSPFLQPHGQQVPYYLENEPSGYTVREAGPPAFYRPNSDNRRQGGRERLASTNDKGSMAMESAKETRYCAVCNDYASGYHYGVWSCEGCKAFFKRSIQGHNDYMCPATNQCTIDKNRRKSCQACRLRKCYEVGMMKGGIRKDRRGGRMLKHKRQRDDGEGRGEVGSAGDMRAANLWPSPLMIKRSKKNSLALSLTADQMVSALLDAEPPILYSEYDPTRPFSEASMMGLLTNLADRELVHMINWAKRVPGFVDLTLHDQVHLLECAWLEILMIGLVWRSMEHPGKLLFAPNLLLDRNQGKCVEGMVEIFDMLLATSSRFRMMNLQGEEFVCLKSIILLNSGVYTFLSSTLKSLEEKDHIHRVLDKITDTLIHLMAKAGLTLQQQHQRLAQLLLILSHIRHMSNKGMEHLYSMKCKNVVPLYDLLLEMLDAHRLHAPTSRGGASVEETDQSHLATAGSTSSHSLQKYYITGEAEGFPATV
protocol: qHTS assay for small molecule agonists of estrogen receptor alpha signaling (AID 588514); note: nearly all actives have a fitted effect of over 70% in size
condition_label: ER-alpha-UAS-bla HEK293, beta-lactamase ratio, 18 h; series mostly up to 76.8 µM
Records with an inconclusive call do not appear. Active and inactive are the calls of the source. The call rests on the fitted dose curve.
Valid outcomes are listed here; reply with one: TRUE for active, FALSE for inactive

These recorded examples may help you get a feel for the data.
structure_smiles_string	target_or_test_system	qualitative_label
C=CCCCCCC	Estrogen receptor (Homo sapiens) (UniProt P03372)	TRUE
CCc1ccccc1O	Estrogen receptor (Homo sapiens) (UniProt P03372)	FALSE

Lookup: Returns: the outcome recorded for CNc1ccc([N+](=O)[O-])cc1 in this assay.
Found: FALSE

Lookup: Same read-out for O=C(Cl)c1cccc([N+](=O)[O-])c1 ?
Found: FALSE

Lookup: And Nc1cccc(S(=O)(=O)O)c1 ?
Found: FALSE

* * *

protocol: Cellular Toxicity (caspase-3) Jurkat (AID 655);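 note: cells exposed to compound for 16 h at 37 °C before reading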
condition_label: Jurkat caspase-3 activation, luminescence; at 92.2 µM (top of the series), DMSO = 0%, tamoxifen = 100%
Results filed as inconclusive are left out. The source made the active and inactive calls. Calls come from the whole dose curve; as a rule, active = well fitted activation curve with a large enough effect; inconclusive = small, poorly fitted or top-dose-only effect; inactive = flat fitted curve, though single readings scatter.
quantity_name: caspase-3 activation

molecule	caspase-3 activation
CC(C)Nc1ccccc1	2.39% (inactive)
COC(=O)CCC(=O)OC	1.38% (inactive)
C=CCn1c(=O)n(CC=C)c(=O)n(CC=C)c1=O	-0.997% (inactive)
Cc1cccc(Br)c1	-1.22% (inactive)
CCOC(=O)C(C)C(C)=O (centres undefined)	3.08% (inactive)
CC(=O)CC(C)C	-2.68% (inactive)
C=C(C)C(=O)OCC(C)O (centres undefined)	1.29% (inactive)
CC(C)N(C)C	-0.157% (inactive)

Lookup: What value of measured caspase-3 activation is listed for CCN(CC)c1cccc(O)c1 ?
Found: 0.712% (inactive)

* * *

protocol: Cellular Toxicity (caspase-3) SK-N-SH (AID 661);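 note: cells exposed to compound for 16 hours; 0% = DMSO basal and 100% = 10 µM staurosporine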
condition_label: SK-N-SH caspase-3 activation, qHTS, DMSO as zero, staurosporine as full; series mostly up to 91.7 µM
The source made the active and inactive calls. Calls come from the whole dose curve; as a rule, active = well fitted activation curve with a large enough effect; inconclusive = small, poorly fitted or top-dose-only effect; inactive = flat fitted curve, though single readings scatter.
quantity_name: outcome

Examples from the recorded data:
molecule	outcome
CC(C)c1ccccc1	inactive
OC(CCl)CCl	inactive
CC(=O)c1ccccn1	inactive
CC(=O)OC(C)C	inactive
O=C(O)CNC(=O)c1ccc(CO)o1	inactive
O=C1C=CCCC1	inactive

Lookup: Requested read-out: outcome. Entry: Nc1cccc(O)c1
Found: inactive

Lookup: Subsequent entry: CCCCCCO
Found: inactive

Lookup: Next up: c1ccsc1
Found: inactive

Lookup: Try this molecule next: CNc1ccc([N+](=O)[O-])cc1
Found: inactive

Lookup: Same question for CSCCC=O please.
Found: inactive

Lookup: Same question for O=P(O)(OCc1ccccc1)OCc1ccccc1 please.
Found: inactive

Lookup: Could you do the same for CCCCCCCCC/C=C/CC1CC(=O)OC1=O (stereo unspecified) , please?
Found: inactive

Lookup: CCOc1ccc(NC(C)=O)cc1N , same question.
Found: inactive

Lookup: Moving on to the next molecule: CC(=O)c1cc(C)oc1C
Found: inactive

Lookup: Query c1ccc(Oc2ccccc2)cc1 next
Found: inactive

Lookup: // query: CCOC(=O)OCC
Found: inactive

Lookup: Likewise for COC(=O)CCC(=O)OC ?
Found: inactive

Lookup: Please answer likewise for C=C(C)OC(C)=O
Found: inactive

Lookup: Check C=C(C)C(=O)OCC(C)O (stereo unspecified) too.
Found: inactive

Lookup: Next up: O=Cc1cccc(Br)c1
Found: inactive

Lookup: Item: COc1ccc(N=[N+]([O-])c2ccc(OC)cc2)cc1
Found: inactive

Lookup: Consider next the molecule O=CNc1ccccc1 in the same way.
Found: inactive

Lookup: Same read-out for Nc1cccc([N+](=O)[O-])c1 ?
Found: inactive

Lookup: // next record C=CCOC(=O)COCCC(C)C
Found: inactive

Lookup: Cc1ccc(S(=O)(=O)NC2CCCCC2)cc1 ?
Found: inactive

Lookup: What do you have for CCC(=O)/C=C/C1C(C)=CCCC1(C)C (stereo unspecified) ?
Found: inactive

* * *

protocol: Cell Viability - LYMP2-012 (AID 982);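 note: cellular ATP by luciferase luminescence where a drop means cytotoxicity; cells exposed to compound for one day before reading; 0% = DMSO only and full loss = 92 µM tetraoctylammonium bromide; nearly all actives have a fitted effect of over 55% in size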
condition_label: LYMP2-012 lymphoblastoid cell viability qHTS; series mostly up to 92.2 µM
Inconclusive results are not listed. Active and inactive are the calls of the source. Calls come from the whole dose curve; as a rule, active = well fitted cell-killing curve with a large enough effect; inconclusive = small, poorly fitted or top-dose-only effect; inactive = flat fitted curve, though single readings scatter.
quantity_name: outcome

compound	experimental_value
NS(=O)(=O)O	inactive
CC(=O)C1(C)CC2=C(CCCC2(C)C)CC1C (configuration not stated)	inactive
O=P(O)(OCc1ccccc1)OCc1ccccc1	inactive
Cc1ccc(Cl)cc1N	inactive
Cc1ccc([N+](=O)[O-])c(N)c1	inactive

Lookup: // outcome lookup, key: C=CCOC(=O)COCCC(C)C
Found: inactive

Lookup: Then CC(=O)c1ccccn1 ?
Found: inactive

Lookup: O=C(O)/C=C/C(=O)O ?
Found: inactive

Lookup: And C=C(C)C(=O)OCCCCCCCCCC ?
Found: inactive

Lookup: Quick one: O=[N+]([O-])c1cccc(C(F)(F)F)c1
Found: inactive

* * *

target_or_test_system: Thyroid hormone receptor beta (Homo sapiens) (UniProt P10828)
Sequence (P10828 whole entry, looked up): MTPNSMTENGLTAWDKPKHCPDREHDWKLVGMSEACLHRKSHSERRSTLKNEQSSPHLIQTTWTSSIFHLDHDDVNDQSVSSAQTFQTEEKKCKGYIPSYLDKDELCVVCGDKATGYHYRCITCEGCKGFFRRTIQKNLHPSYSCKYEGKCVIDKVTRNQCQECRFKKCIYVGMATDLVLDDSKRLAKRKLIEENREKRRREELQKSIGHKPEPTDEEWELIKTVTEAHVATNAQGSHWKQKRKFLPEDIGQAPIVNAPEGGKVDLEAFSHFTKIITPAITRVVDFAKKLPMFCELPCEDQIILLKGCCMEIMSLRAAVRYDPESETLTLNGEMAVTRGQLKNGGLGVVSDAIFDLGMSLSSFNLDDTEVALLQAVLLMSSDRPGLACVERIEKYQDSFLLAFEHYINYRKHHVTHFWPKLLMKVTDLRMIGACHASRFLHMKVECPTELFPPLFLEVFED
protocol: qHTS assay for small molecule antagonists of thyroid hormone receptor beta signaling (AID 588547);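 note: cells stimulated with 0.4 nM T3 agonist during compound exposure; % is set by controls: 0 for no effect and ±100 for the full control effect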
condition_label: TR-UAS-bla HEK293, beta-lactamase ratio, antagonist mode, 18 h
Records with an inconclusive call do not appear.
quantity_name: activity change % (negative = inhibition) (%)
Value expressed in %; do not type the unit.

Please review the entries below; each comes with its answer.
molecule	uom	experimental_value
CCCCC(CC)CO (configuration not stated)	%	-6.25
c1ccc2[nH]cnc2c1	%	2.62
Nc1cccc(N)c1	%	-1.36

Lookup: Form: Entry = Cc1cc(C2(c3cc(C)c(O)cc3C)OS(=O)(=O)c3ccccc32)c(C)cc1O | System = Thyroid hormone receptor beta (Homo sapiens) (UniProt P10828) | activity change % (negative = inhibition) = ____
Found: -15

Lookup: Same again, this time with Cc1ccc(C#N)cc1
Found: 4.16

Lookup: Let us now turn to CC(C)=C1CCC(C)CC1=O (configuration not stated)
Found: -6.39

Lookup: Entry CC(C)(c1cc(Br)c(OCC(Br)CBr)c(Br)c1)c1cc(Br)c(OCC(Br)CBr)c(Br)c1 (configuration not stated) please
Found: -9.17
